- MEASUREMENT TARGET: Estrogen receptor (Homo sapiens, UniProt P03372)
- Sequence (P03372 whole entry): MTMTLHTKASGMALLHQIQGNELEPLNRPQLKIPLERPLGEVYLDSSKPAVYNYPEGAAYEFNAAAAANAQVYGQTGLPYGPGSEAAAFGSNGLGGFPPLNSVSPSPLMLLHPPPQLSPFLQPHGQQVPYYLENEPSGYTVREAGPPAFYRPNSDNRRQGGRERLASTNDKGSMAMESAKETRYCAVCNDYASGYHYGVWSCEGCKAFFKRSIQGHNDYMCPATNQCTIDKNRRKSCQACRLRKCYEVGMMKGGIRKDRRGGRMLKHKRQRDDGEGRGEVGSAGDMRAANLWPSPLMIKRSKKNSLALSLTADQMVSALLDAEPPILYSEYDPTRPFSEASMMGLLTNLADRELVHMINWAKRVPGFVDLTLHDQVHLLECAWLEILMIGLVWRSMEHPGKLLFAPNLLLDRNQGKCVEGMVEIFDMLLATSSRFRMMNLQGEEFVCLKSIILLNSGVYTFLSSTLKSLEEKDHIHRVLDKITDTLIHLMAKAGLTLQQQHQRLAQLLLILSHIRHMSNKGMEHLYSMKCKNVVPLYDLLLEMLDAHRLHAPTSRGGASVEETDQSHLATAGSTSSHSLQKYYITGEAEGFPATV
OUTCOME MEASURE: log10 of IC50 (log10 of the value in nM)
For clarity, the numbers are log10 values of IC50 expressed in nM.

# input Hello, please tell me recorded log10 of IC50 for this one: Oc1ccc(-c2c(-c3ccccc3)[nH]c3ccccc23)cc1
# output 1.38

# input Hello, please tell me recorded log10 of IC50 for this one: Oc1ccc(-c2[nH]c3ccccc3c2-c2ccc(O)cc2)cc1
# output 1.98

# input Hello, please tell me recorded log10 of IC50 for this one: Oc1ccc(-c2[nH]c3ccccc3c2-c2ccccc2)cc1
# output 3.92

# input Hello, please tell me recorded log10 of IC50 for this one: Cc1nocc1-c1nc2ccccc2n1-c1ccc(O)cc1
# output 3.06

# input Hello, please tell me recorded log10 of IC50 for this one: Oc1ccc(-c2noc(C(F)(F)F)c2-c2ccccc2)cc1
# output 0.93

# input Hello, please tell me recorded log10 of IC50 for this one: Oc1ccc(-n2c(-c3ccccc3Cl)nc3ccccc32)cc1
# output 3.24

* * *

Endpoint: IC50. System: Estrogen receptor beta (Homo sapiens, UniProt Q92731). Items follow.
Sequence (Q92731 whole entry): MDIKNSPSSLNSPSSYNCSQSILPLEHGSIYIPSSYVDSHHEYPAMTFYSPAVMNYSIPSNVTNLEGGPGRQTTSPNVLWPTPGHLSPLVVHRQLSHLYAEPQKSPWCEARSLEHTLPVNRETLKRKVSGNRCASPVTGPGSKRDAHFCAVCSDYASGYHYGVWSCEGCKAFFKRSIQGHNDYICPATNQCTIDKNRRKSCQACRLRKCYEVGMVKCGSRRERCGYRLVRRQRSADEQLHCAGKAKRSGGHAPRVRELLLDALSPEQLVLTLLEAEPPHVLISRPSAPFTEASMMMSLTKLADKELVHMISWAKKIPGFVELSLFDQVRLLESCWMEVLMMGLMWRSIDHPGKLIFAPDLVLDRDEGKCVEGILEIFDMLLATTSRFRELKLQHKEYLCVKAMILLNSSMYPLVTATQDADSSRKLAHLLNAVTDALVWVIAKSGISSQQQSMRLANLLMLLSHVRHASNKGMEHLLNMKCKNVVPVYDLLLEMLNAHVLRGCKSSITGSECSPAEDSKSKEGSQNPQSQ
Your answer is read as nM, so omit the unit and give the number.

# input Hello, please tell me recorded IC50 for this one: c1ccc(-c2[nH]c3ccccc3c2-c2ccccc2)cc1
# output 171

# input Hello, please tell me recorded IC50 for this one: Oc1ccc(-c2c(-c3ccccc3)[nH]c3ccccc23)cc1
# output 1.12

# input Hello, please tell me recorded IC50 for this one: Oc1ccc(-c2[nH]c3ccccc3c2-c2ccc(O)cc2)cc1
# output 11.9

# input Hello, please tell me recorded IC50 for this one: Oc1ccc(-c2noc(C(F)(F)F)c2-c2ccccc2)cc1
# output 2.4

# input Hello, please tell me recorded IC50 for this one: Oc1ccc(-n2c(-c3ccccc3Cl)nc3ccccc32)cc1
# output 149

# input Hello, please tell me recorded IC50 for this one: Oc1ccc(-c2[nH]c3ccccc3c2-c2ccccc2)cc1
# output 355

# input Hello, please tell me recorded IC50 for this one: Oc1ccc(-n2c(-c3cccs3)nc3ccccc32)cc1
# output 49.7
